experiment: Stability Test-1: residual rate of 1% aqueous solutions stored at 50° C. (HPLC); assay type: physicochemical; conditions: water; pH 7 to 9, 50° C., after two weeks; read-out: residual rates

{"Molecular string": "O=C1O[C@H]([C@@H](O)CO)C(O)=C1O", "remaining at 336 h": "< 30%"}

----------
assay: Stability Test-2: residual rate in cream of pH 7 or 9 stored at 50° C.; assay type: physicochemical; conditions: cream pH 7, 50° C., after 4 weeks; 40320 min

{"Molecule": "CC(C)CCCCCCCCCCCCCCC(=O)OC[C@H](OC(=O)CCCCCCCCCCCCCCC(C)C)[C@H]1OC(=O)C2=C1OCCCCO2 [Synthesis Example 18]", "Residual Rate": "⊚ (95% or more)"}
{"Molecule": "CCCCCCCCCCCC(=O)OCC(OC(=O)CCCCCCCCCCC)C1OC(=O)C2=C1OCCCCO2 (stereo not drawn) [Synthesis Example 14]", "Residual Rate": "⊚ (95% or more)"}

Values compiled from patent US20260294769A1.
